- System: Clostridium difficile
- assay-procedure: growth AUC relative to DMSO control (median of replicates) (fraction); higher = more growth (less inhibition), active = hit call of the paper
- condition-details: 20 µM; 24 h
Mark No for growth AUC values under 1, and Yes for everything at or above.

Consider the following illustrative entries.
Oc1ccccc1-c1ccccc1 :: Yes
Cc1cc(C2CC2)nc(Nc2ccccc2)n1 :: No
CC(C)(C)C(O)/C(=C/c1ccc(Cl)cc1Cl)n1cncn1 (mixture of isomers) :: No
O=C(Nc1ccccc1)c1ccccc1I :: Yes
ClC(Cl)=C(c1ccc(Cl)cc1)c1ccc(Cl)cc1 :: No

Request: // inclusive: growth AUC at least 1? input: COP(=S)(OC)Oc1ccc([N+](=O)[O-])c(Cl)c1
Response: No

Request: Again, but for COC(=O)Nc1nc2ccccc2[nH]1
Response: Yes

Request: Then what about the compound COC(=O)c1cc(Oc2ccc(Cl)cc2Cl)ccc1[N+](=O)[O-] ?
Response: No

Request: What would you report for CCC(=O)Nc1ccc(Cl)c(Cl)c1 ?
Response: Yes

----------
- System: Parabacteroides distasonis
- assay-procedure: growth AUC relative to DMSO control (median of replicates) (fraction); higher = more growth (less inhibition), active = hit call of the paper;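 active = AUC reduced over 20% with Padj below 0.05 in at least 2 of 3 replicates; inactive = otherwise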
- condition-details: 20 µM; 24 h
Valid outcomes are listed here; reply with one: active, inactive

Take a look at these entries with their results.
CCOP(=O)(N=C1SCC(C)S1)OCC (stereo unspecified) :: inactive
CCCCc1c(C)nc(NCC)nc1OS(=O)(=O)N(C)C :: active
Cc1nc(N(C)C)nc(OC(=O)N(C)C)c1C :: inactive
CON(C)C(=O)Nc1ccc(Br)c(Cl)c1 :: inactive
CC(=O)CC(c1ccco1)c1c(O)c2ccccc2oc1=O (stereo unspecified) :: inactive

Request: Outcome logged for CCOP(=S)(OCC)SCS(=O)CC (stereo unspecified) in this assay:
Response: inactive

Request: Also CCNc1nc(NC(C)C(C)C)nc(SC)n1 (stereo unspecified) , if possible.
Response: inactive

Request: Ok, now O=[N+]([O-])C(Br)(CO)CO
Response: inactive

Request: Again, but for CNC(=O)Oc1cccc2c1OC(C)(C)C2=O
Response: inactive

Request: Now this one: COP(=S)(OC)Oc1cc(Cl)c(I)cc1Cl
Response: active

Request: Lookup CC1(C)CON(Cc2ccccc2Cl)C1=O
Response: inactive

----------
- Tested on: Bacteroides uniformis
- assay-procedure: growth AUC relative to DMSO control (median of replicates) (fraction); higher = more growth (less inhibition), active = hit call of the paper
- condition-details: 20 µM; 24 h
The threshold is inclusive: growth AUC of exactly 1 counts as y; values below receive n.

# example entries with known answers
CCCCCCCCCc1ccc(O)cc1 :: n
O=P(Oc1ccccc1)(Oc1ccccc1)Oc1ccccc1 :: n

Request: Say whether Clc1ccc(C(c2ccc(Cl)cc2)C(Cl)(Cl)Cl)cc1 shows growth AUC of 1 or more.
Response: n

Request: One more compound: COP(=S)(NC(C)C)Oc1ccccc1C(=O)OC(C)C (centres undefined)
Response: n

Request: Same for CCCN(CCC)c1c([N+](=O)[O-])cc(C(C)C)cc1[N+](=O)[O-]
Response: y

Request: Repeat with CCOP(=S)(OCC)Oc1ccc2c(C)c(Cl)c(=O)oc2c1
Response: n

Request: // same read-out, input: ClC1=C(Cl)[C@]2(Cl)[C@@H]3[C@H]4C[C@H]([C@@H]5O[C@H]45)[C@@H]3[C@@]1(Cl)C2(Cl)Cl
Response: n

Request: Same for COC(=O)NS(=O)(=O)c1ccc(N)cc1
Response: n

Request: Same lookup for CNC(=O)Oc1cc(C)cc(C(C)C)c1 , please.
Response: y

Request: Follow-up item: O=c1ccc(=O)[nH][nH]1
Response: y

----------
- Tested on: Bacteroides caccae
- assay-procedure: growth AUC relative to DMSO control (median of replicates) (fraction); higher = more growth (less inhibition), active = hit call of the paper
- condition-details: 20 µM; 24 h
result-type: growth AUC
Kindly provide the number alone.

Consider the following illustrative entries.
CC1(C)[C@H](C=C(Cl)Cl)[C@H]1C(=O)OCc1c(F)c(F)cc(F)c1F :: 1.02
CS(=O)(=O)NC(=O)c1cc(Oc2ccc(C(F)(F)F)cc2Cl)ccc1[N+](=O)[O-] :: 1.01

Attention now shifts to the item below.
Request: Item: CC(=O)CC(c1ccco1)c1c(O)c2ccccc2oc1=O (configuration not stated) Test system: Bacteroides caccae Read-out: growth AUC Value: ?
Response: 1.01

----------
- Tested on: Akkermansia muciniphila
- assay-procedure: growth AUC relative to DMSO control (median of replicates) (fraction); higher = more growth (less inhibition), active = hit call of the paper;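 active = AUC reduced over 20% with Padj below 0.05 in at least 2 of 3 replicates; inactive = otherwise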
- condition-details: 20 µM; 24 h
Can you answer with just one of these options? 1 for active, -1 for inactive

Example cases with answers are listed next.
CCNc1nc(Cl)nc(NC(C)C)n1 :: -1
CN=C=S :: -1
C[N+]1(C)CCCCC1.[Cl-] :: -1
Clc1cccc(Cl)c1Cl :: -1
O=[N+]([O-])c1c(Cl)c(Cl)c(Cl)c(Cl)c1Cl :: -1

Request: Per the assay record, what outcome was assigned to CCOP(=S)(OCC)Oc1nc(Cl)n(C(C)C)n1 ?
Response: -1

Request: Then this compound: CCCC1COC(Cn2cncn2)(c2ccc(Cl)cc2Cl)O1 (configuration not stated)
Response: -1

----------
- System: Lactobacillus gasseri
- assay-procedure: growth AUC relative to DMSO control (median of replicates) (fraction); higher = more growth (less inhibition), active = hit call of the paper
- condition-details: 20 µM; 24 h
Below, each entry is listed alongside its reported growth AUC.
# respond with the number and nothing more

O=C1C2(Cl)C3(Cl)C4(Cl)C(Cl)(Cl)C5(Cl)C3(Cl)C1(Cl)C5(Cl)C24Cl (stereo unspecified) :: 0.135

Request: So what does the record say about growth AUC for O=C(O)C(F)(F)C(F)(F)C(F)(F)C(F)(F)C(F)(F)C(F)(F)C(F)(F)C(F)(F)F ?
Response: 1

Request: Next up: CCOP(=O)(SC(C)CC)SC(C)CC (stereo unspecified)
Response: 1.04

Request: Try this molecule next: CCCCN(CC)C(=O)SCCC
Response: 0.972

Request: Would you kindly repeat that for CCc1nn(C)c(C(=O)NCc2ccc(C(C)(C)C)cc2)c1Cl ?
Response: 0.913

Request: Follow-up entry: CCOP(=O)(OCC)OP(=O)(OCC)OCC
Response: 0.954

----------
- Tested on: Parabacteroides merdae
- assay-procedure: growth AUC relative to DMSO control (median of replicates) (fraction); higher = more growth (less inhibition), active = hit call of the paper
- condition-details: 20 µM; 24 h
Classify by measured growth AUC: condition met if it is equal to or exceeds 1, condition not met if it is smaller.

Check out these entries, answers already filled in.
CCCOCC(=Nc1ccc(Cl)cc1C(F)(F)F)n1ccnc1 :: condition not met
CNC(=O)Oc1ccccc1C(C)C :: condition met
CCNc1nc(NC(C)C)nc(SC)n1 :: condition met
Cl.NC1=NCCN1Cc1ccc(Cl)nc1 :: condition met
CCOP(=O)(OCC)ON1C(=O)c2cccc3cccc(c23)C1=O :: condition not met
Cc1cc(C(C#N)c2ccc(Cl)cc2)c(Cl)cc1NC(=O)c1cc(I)cc(I)c1O (configuration not stated) :: condition not met

Request: Does the compound CC(C)(C)C(O)(CCc1ccc(Cl)cc1)Cn1cncn1 (configuration not stated) have recorded growth AUC that is 1 or more?
Response: condition not met

Request: How about CC(C)N(C(=O)SCC(Cl)=C(Cl)Cl)C(C)C ?
Response: condition not met

Request: Record: CCC1COC(Cn2cncn2)(c2ccc(Cl)cc2Cl)O1 (configuration not stated)
Response: condition not met

Request: And then ClC1C(Cl)C(Cl)C(Cl)C(Cl)C1Cl (mixture of isomers) , what is it?
Response: condition not met

Request: Also O=c1oc2ccccc2c(O)c1C1CC(c2ccc(-c3ccc(Br)cc3)cc2)Cc2ccccc21 (configuration not stated) ?
Response: condition not met

Request: What do we get for O=c1oc2ccccc2c(O)c1C1CC(c2ccc(OCc3ccc(C(F)(F)F)cc3)cc2)Cc2ccccc21 (mixture of isomers) ?
Response: condition not met

Request: Param item: COP(=S)(OC)Oc1ccc(Sc2ccc(OP(=S)(OC)OC)cc2)cc1
Response: condition met

Request: What do you have for CON(C)C(=O)Nc1ccc(Br)c(Cl)c1 ?
Response: condition not met

Request: Repeat for the following compound: CCOC(=O)C(O)(c1ccc(Cl)cc1)c1ccc(Cl)cc1
Response: condition not met

----------
- System: Eubacterium rectale
- assay-procedure: growth AUC relative to DMSO control (median of replicates) (fraction); higher = more growth (less inhibition), active = hit call of the paper;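 active = AUC reduced over 20% with Padj below 0.05 in at least 2 of 3 replicates; inactive = otherwise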
- condition-details: 20 µM; 24 h
// one of 1 (yes) for active, 0 (no) for inactive, no free text

Request: Outcome logged for Oc1ccccc1-c1ccccc1 in this assay:
Response: 0 (no)

Hey, just so you know, these numbers are from the supplement of paper PMC12669032.
